system: ABUTH (Velvetleaf); assay: Postemergence herbicidal evaluation; format: in vivo, Abutilon theophrasti; settings: postemergence, rate 0.0625 kg/ha
measurement type: ABUTH herbicidal rating

// query For O=C1CSC(=Nc2cc(N3C(=O)C4=C(CCCC4)C3=O)c(F)cc2Cl)N1c1ccccc1 , what is its reported ABUTH herbicidal rating?
// result 6.0

// query For CCOC(=O)CN1C(=O)C(CC(=O)OC(C)C(=O)OCC)S/C1=N/c1cc(-n2c(=O)cc(C(F)(F)F)n(C)c2=O)c(F)cc1Cl (stereo not drawn) , what is its reported ABUTH herbicidal rating?
// result 9.0

// query For C=CCN1C(=O)C(CC(=O)NOC)SC1=Nc1cc(-n2c(=O)cc(C(F)(F)F)n(C)c2=O)c(F)cc1Cl (stereo not drawn) , what is its reported ABUTH herbicidal rating?
// result 9.0

// query For CCC1SC(=Nc2cc(-n3c(=O)cc(C(F)(F)F)n(C)c3=O)c(F)cc2Cl)N(C)C1=O (stereo not drawn) , what is its reported ABUTH herbicidal rating?
// result 7.0

// query For C=CCN1C(=O)C(CC(N)=O)SC1=Nc1cc(-n2c(=O)cc(C(F)(F)F)n(C)c2=O)c(F)cc1Cl (stereo not drawn) , what is its reported ABUTH herbicidal rating?
// result 9.0

// query For CCOC(=O)CN1C(=O)C(C)SC1=Nc1cc(-n2c(=O)cc(C(F)(F)F)n(C)c2=O)c(F)cc1Cl (stereo not drawn) , what is its reported ABUTH herbicidal rating?
// result 9.0

* * *

test system: ABUTH (Velvetleaf); assay: Preemergence herbicidal evaluation; assay type: in vivo, Abutilon theophrasti; settings: rate 0.0156 kg/ha; rated 4-5 weeks after treatment
Please respond with reported Preemergence herbicidal rating ABUTH for every item in the list.
Format: numeric value only, no unit, no commentary.

// query For CCCCOC(=O)CN1C(=O)CSC1=Nc1cc(-n2c(=O)cc(C(F)(F)F)n(C)c2=O)c(F)cc1Cl , what is its reported Preemergence herbicidal rating ABUTH?
// result 1.0

// query For CCOC(=O)CN1C(=O)C(SC)SC1=Nc1cc(-n2c(=O)cc(C(F)(F)F)n(C)c2=O)c(F)cc1Cl (stereo not shown) , what is its reported Preemergence herbicidal rating ABUTH?
// result 0.0

// query For C=CCN1C(=O)C(CC(=O)Nc2ccccc2)SC1=Nc1cc(-n2c(=O)cc(C(F)(F)F)n(C)c2=O)c(F)cc1Cl (stereo not shown) , what is its reported Preemergence herbicidal rating ABUTH?
// result 0.0

// query For CCOC(=O)CN1C(=O)C(CC(=O)O)O/C1=N/c1cc(-n2c(=O)cc(C(F)(F)F)n(C)c2=O)c(F)cc1Cl (stereo not shown) , what is its reported Preemergence herbicidal rating ABUTH?
// result 7.0

* * *

test system: SETVI (Foxtail, Green); assay: Postemergence herbicidal evaluation; format: in vivo, Setaria viridis; conditions: postemergence, rate 0.0158 kg/ha
measurement type: SETVI herbicidal rating
Format: numeric value only, no unit, no commentary.

// query For CCOC(=O)C(c1ccc(Cl)cc1)N1C(=O)CSC1=Nc1cc(-n2c(=O)cc(C(F)(F)F)n(C)c2=O)c(F)cc1Cl (racemic) , what is its reported SETVI herbicidal rating?
// result 4.0

// query For CN1C(=O)C(CC(N)=O)SC1=Nc1cc(-n2c(=O)cc(C(F)(F)F)n(C)c2=O)c(F)cc1Cl (centres unmarked) , what is its reported SETVI herbicidal rating?
// result 0.0

// query For CCOC(=O)CN1C(=O)C(=C2CCCC2)SC1=Nc1cc(-n2c(=O)cc(C(F)(F)F)n(C)c2=O)c(F)cc1Cl , what is its reported SETVI herbicidal rating?
// result 0.0

// query For COC(=O)CC1SC(=Nc2cc(-n3c(=O)cc(C(F)(F)F)n(C)c3=O)c(F)cc2Cl)N(C)C1=O (centres unmarked) , what is its reported SETVI herbicidal rating?
// result 9.0

// query For CCOC(=O)CN1C(=O)C(CC(=O)OCCF)SC1=Nc1cc(-n2c(=O)cc(C(F)(F)F)n(C)c2=O)c(F)cc1Cl (centres unmarked) , what is its reported SETVI herbicidal rating?
// result 9.0

// query For Cn1c(C(F)(F)F)cc(=O)n(-c2cc(N=C3SCC(=O)N3[C@H](Cc3ccccc3)C(=O)O)c(Cl)cc2F)c1=O , what is its reported SETVI herbicidal rating?
// result 3.0

// query For C=CCN1C(=O)C(CC(=O)OC(C)C(=O)OCC)SC1=Nc1cc(-n2c(=O)ccn(C)c2=O)c(F)cc1Cl (centres unmarked) , what is its reported SETVI herbicidal rating?
// result 9.0

// query For C=CCN1C(=O)CSC1=Nc1cc(-n2c(=O)cc(C(F)(F)F)n(C)c2=O)c(F)cc1Cl , what is its reported SETVI herbicidal rating?
// result 2.0

* * *

tested on: GALAP (Galium); assay: Postemergence herbicidal evaluation; format: in vivo, Galium aparine; conditions: postemergence, rate 0.0313 kg/ha
Please respond with reported herbicidal rating GALAP for every item in the list.
Format: numeric value only, no unit, no commentary.

// query For Cc1ccc(CN2C(=O)CSC2=Nc2cc(-n3c(=O)cc(C(F)(F)F)n(C)c3=O)c(F)cc2Cl)cc1C , what is its reported herbicidal rating GALAP?
// result 1.0

// query For C=CCN1C(=O)C(CC(=O)NO)SC1=Nc1cc(-n2c(=O)cc(C(F)(F)F)n(C)c2=O)c(F)cc1Cl (centres unmarked) , what is its reported herbicidal rating GALAP?
// result 1.0

// query For COC(=O)CSCCN1C(=O)CSC1=Nc1cc(-n2c(=O)cc(C(F)(F)F)n(C)c2=O)c(F)cc1Cl , what is its reported herbicidal rating GALAP?
// result 2.0

// query For CCOC(=O)CN1C(=O)C(CC(=O)NS(=O)(=O)CC)SC1=Nc1cc(-n2c(=O)cc(C(F)(F)F)n(C)c2=O)c(F)cc1Cl (centres unmarked) , what is its reported herbicidal rating GALAP?
// result 3.0

// query For COc1cccc(CN2C(=O)CSC2=Nc2cc(-n3c(=O)cc(C(F)(F)F)n(C)c3=O)c(F)cc2Cl)c1 , what is its reported herbicidal rating GALAP?
// result 1.0

* * *

System: SETVI (Foxtail, Green)
Assay: Preemergence herbicidal evaluation
Type: in vivo, Setaria viridis
Conditions: preemergence, 0.2500 kg/ha, rated 4-5 weeks after treatment, 0-9 scale
Description: Results of herbicide evaluation are expressed on a rating scale (0-9). The scale is based upon a visual observation of plant stand, vigor, malformation, size, chlorosis and overall plant appearance as compared with a control. […] The compounds evaluated are reported by compound number given in Example 37.
Please respond with reported SETVI rating for every item in the list.
Format: numeric value only, no unit, no commentary.

// query For CN1C(=O)C(CC(N)=O)SC1=Nc1cc(-n2c(=O)cc(C(F)(F)F)n(C)c2=O)c(F)cc1Cl (stereo not drawn) [Compound 92] , what is its reported SETVI rating?
// result 9.0

// query For COC(=O)CC1SC(=Nc2cc(-n3c(=O)cc(C(F)(F)F)n(C)c3=O)c(F)cc2Cl)N(C)C1=O (stereo not drawn) [Compound 88] , what is its reported SETVI rating?
// result 9.0

// query For C=CCN1C(=O)C(CC(=O)NOC)SC1=Nc1cc(-n2c(=O)cc(C(F)(F)F)n(C)c2=O)c(F)cc1Cl (stereo not drawn) [Compound 85] , what is its reported SETVI rating?
// result 9.0

// query For CN1C(=O)C(CC(=O)NS(C)(=O)=O)SC1=Nc1cc(-n2c(=O)cc(C(F)(F)F)n(C)c2=O)c(F)cc1Cl (stereo not drawn) [Compound 97] , what is its reported SETVI rating?
// result 1.0

// query For CCS(=O)(=O)NC(=O)CC1SC(=Nc2cc(-n3c(=O)cc(C(F)(F)F)n(C)c3=O)c(F)cc2Cl)N(C)C1=O (stereo not drawn) [Compound 105] , what is its reported SETVI rating?
// result 3.0

// query For C=CCN1C(=O)C(CC(=O)OC(C)C(=O)OCC)SC1=Nc1cc(-n2c(=O)ccn(C)c2=O)c(F)cc1Cl (stereo not drawn) [Compound 94] , what is its reported SETVI rating?
// result 9.0

* * *

Please respond with reported Preemergence herbicidal rating SETVI for every item in the list.
tested on: SETVI (Foxtail, Green); assay: Preemergence herbicidal evaluation; type: in vivo, Setaria viridis; settings: rate 0.0625 kg/ha; rated 4-5 weeks after treatment

// query For CCOC(=O)CN1C(=O)C(CC(=O)OC(C)C)SC1=Nc1cc(-n2c(=O)cc(C(F)(F)F)n(C)c2=O)c(F)cc1Cl (stereo not drawn) [Compound 60] , what is its reported Preemergence herbicidal rating SETVI?
// result 0.5

// query For Cn1c(C(F)(F)F)cc(=O)n(-c2cc(N=C3SCC(=O)N3CC(=O)OCC#N)c(Cl)cc2F)c1=O [Compound 109] , what is its reported Preemergence herbicidal rating SETVI?
// result 9.0

// query For CCCCOC(=O)CN1C(=O)CSC1=Nc1cc(-n2c(=O)cc(C(F)(F)F)n(C)c2=O)c(F)cc1Cl [Compound 111] , what is its reported Preemergence herbicidal rating SETVI?
// result 1.0

// query For Cn1c(C(F)(F)F)cc(=O)n(-c2cc(/N=C3/SCC(=O)N3CC(=O)O)c(Cl)cc2F)c1=O [Compound 52] , what is its reported Preemergence herbicidal rating SETVI?
// result 0.0

// query For CCOC(=O)CCN1C(=O)CSC1=Nc1cc(-n2c(=O)cc(C(F)(F)F)n(C)c2=O)c(Cl)cc1Cl [Compound 32] , what is its reported Preemergence herbicidal rating SETVI?
// result 0.5

// query For CCOC(=O)CN1C(=O)C(Cc2ccccc2OC(C)C(=O)O)S/C1=N/c1cc(-n2c(=O)cc(C(F)(F)F)n(C)c2=O)c(F)cc1Cl (stereo not drawn) [Compound 114] , what is its reported Preemergence herbicidal rating SETVI?
// result 2.0
